target: UniProt:P27487
Sequence (P27487 whole entry): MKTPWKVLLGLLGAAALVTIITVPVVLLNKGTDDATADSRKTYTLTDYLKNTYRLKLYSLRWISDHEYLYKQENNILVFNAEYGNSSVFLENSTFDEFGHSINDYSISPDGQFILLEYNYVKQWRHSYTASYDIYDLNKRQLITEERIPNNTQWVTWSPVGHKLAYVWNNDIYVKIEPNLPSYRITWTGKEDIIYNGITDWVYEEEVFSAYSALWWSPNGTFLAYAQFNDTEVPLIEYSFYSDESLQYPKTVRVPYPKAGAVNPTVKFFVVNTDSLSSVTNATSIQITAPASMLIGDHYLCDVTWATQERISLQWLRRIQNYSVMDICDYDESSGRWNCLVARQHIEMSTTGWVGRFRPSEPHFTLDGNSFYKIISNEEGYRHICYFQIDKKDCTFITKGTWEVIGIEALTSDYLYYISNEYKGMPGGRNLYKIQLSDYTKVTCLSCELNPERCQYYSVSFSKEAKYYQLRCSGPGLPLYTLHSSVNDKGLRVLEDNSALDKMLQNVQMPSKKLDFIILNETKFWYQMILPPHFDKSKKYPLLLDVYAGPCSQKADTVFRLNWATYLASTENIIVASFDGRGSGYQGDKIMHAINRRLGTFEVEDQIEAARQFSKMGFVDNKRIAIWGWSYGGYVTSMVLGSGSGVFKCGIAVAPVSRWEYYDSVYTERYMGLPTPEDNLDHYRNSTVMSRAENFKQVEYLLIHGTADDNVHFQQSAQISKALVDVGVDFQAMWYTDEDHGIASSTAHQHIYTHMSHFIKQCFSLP
pIC50: −log10 of the molar value.
measured_quantity: pIC50

O=C1c2cccc(O)c2C(=O)c2c(O)cc(CO)cc21
4.80

* * *

molecular target: UniProt P27487; assay: DPP4 activity assay (DPP4 inhibitor screening assay kit, Cayman); type: biochemical; parameters: purchased Cayman Chemical, Ann Arbor, MI, USA; settings: 10 µM; control mean 100.0; mean of Exp 1-3;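 note: fluorescence read at excitation 360 nm and emission 460 nm after the enzyme reaction ran 30 min at 37 °C in a 96-well plate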
This listing pairs molecules with measured DPP4 activity in library screen, Mean.
measured_quantity: DPP4 activity in library screen, Mean

CC1(C)[C@@H](O[C@H]2O[C@H](C(=O)O)[C@@H](O)[C@H](O)[C@H]2O[C@@H]2O[C@H](C(=O)O)[C@@H](O)[C@H](O)[C@H]2O)CC[C@]2(C)[C@H]3C(=O)C=C4[C@@H]5C[C@@](C)(C(=O)O)CC[C@]5(C)CC[C@@]4(C)[C@]3(C)CC[C@@H]12 [Ammonium Glycyrrhizinate]
90.4
COc1cc(/C=C/C(=O)O)ccc1O
93.1
COc1ccc([C@@H]2CC(=O)c3c(O)cc(O[C@@H]4O[C@H](CO)[C@@H](O)[C@H](O)[C@H]4O[C@@H]4O[C@@H](C)[C@H](O)[C@@H](O)[C@H]4O)cc3O2)cc1O
85.3
C[N+](C)(C)CC(O)CC(=O)O.[Cl-] (racemic) [DL-Carnitine HCl]
96.5
O=C1CCC[C@@H]2[C@H]3CCCN4CCC[C@@H](CN12)[C@@H]34 [(+)-Matrine]
98.0
COc1ccc(-c2coc3cc(O)cc(O)c3c2=O)cc1
93.6
CCC1=C[C@@H]2CN3CCc4c([nH]c5ccccc45)[C@@](C(=O)OC)(C2)[C@@H]13
116.7
C[C@@H]1O[C@@H](O)[C@H](O)[C@H](O)[C@H]1O.O [L-(+)-Rhamnose Monohydrate]
92.3
CCCCCCCCCCCCCCCC(=O)OC[C@@]1(O)C[C@@]23CC[C@@H]4c5ccoc5CC[C@@]4(C)[C@@H]2CC[C@@H]1C3 [Cafestol palmitate]
116.2
COc1cc2c(cc1O)C[C@@H]1NCCc3cc(OC)c(O)c-2c31
88.5
Cl.N=c1ccn2c(n1)O[C@H]1[C@H](O)[C@@H](CO)O[C@H]12 [Cyclocytidine HCl]
101.0
C=C1C(=O)O[C@H]2[C@H]1CC/C(C)=C/CC[C@@]1(C)O[C@@H]21 [(-)-Parthenolide]
90.4
